Where these numbers come from: paper PMC5540273

# System: BMPR2
# TEST SETTINGS: concentration: 1 μM,replicates: in singlicate; n = 1;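 note: KINOMEscan kinase panel screen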
ATTRIBUTE MEASURED: %Inh (%)
Answers are plain numbers, in %.

CC(C)N1C(=O)Cc2cc(Nc3ncc(C(F)(F)F)c(NCc4cccc(S(C)(=O)=O)c4)n3)ccc21
17
COc1ccc(C[C@@H](CN)NC(=O)c2cc(Br)c(-c3ccnc4[nH]ccc34)s2)cc1.Cl.Cl
73
Cc1ccc2c(-c3ccncc3)c(-c3ccc(F)cc3)nn2c1.Cl
11
NC(=O)c1cc(-c2ccccc2)cc2c(C3CCNCC3)c[nH]c12
4

# per-item lookup of %Inh; items listed below
1. C[C@H]1Oc2cc(cnc2N)-c2c(nn(C)c2C#N)CN(C)C(=O)c2ccc(F)cc21
2. Cc1cc2cn[nH]c2cc1-c1cccc2c(N)c(C(N)=O)nnc12
3. Cl.Cl.Nc1nc(-c2ccc3c(N)n[nH]c3c2)cc(N2CCCC(NC(=O)c3ccccc3)C2)n1 (stereo not shown)

Output line:
0
96.5
0

Dear colleague, could you send me %Inh for each of the items below? Thanks.
1. CCN(CC)CCCCNc1ncc2cc(-c3c(Cl)cccc3Cl)c(NC(=O)NC(C)(C)C)nc2n1
2. O=C(NCCCN1CCOC1=O)c1cnc(NCc2cc(Cl)ccc2Cl)nc1NC1CCCC1
3. Cc1n[nH]c2ccc(-c3cc(OC[C@@H](N)Cc4ccccc4)cnc3-c3ccoc3)cc12.O=C(O)C(F)(F)F.O=C(O)C(F)(F)F

Output line:
1: 20; 2: 0; 3: 14

* * *

Please go through the items and note down their %Inh.
# Test system: CAMK1B
# TEST SETTINGS: concentration: 1 μM,replicates: in singlicate; n = 1
Numbers only, in %.

The following molecules have reported results that may help.
Cc1ccc(-n2nc(C(C)(C)C)cc2NC(=O)Nc2ccc(OCCN3CCOCC3)c3ccccc23)cc1
0
CCN(CC)CCOc1ccc(Nc2ncc3cc(-c4c(Cl)cccc4Cl)c(=O)n(C)c3n2)cc1
39
C[C@H]1Oc2cc(cnc2N)-c2c(nn(C)c2C#N)CN(C)C(=O)c2ccc(F)cc21
49
CN(C)CC(O)COc1ccc(Nc2nccc(-c3cnn4nc(N5CCOCC5)ccc34)n2)cc1 (centres unmarked)
49
Cc1occc1-c1nc(N)c(OC[C@@H](N)Cc2c[nH]c3ccccc23)cc1-c1cc2c(C)n[nH]c2cn1
35

Each molecule below has a reported value. Please supply its %Inh.
1. CC(C)N1C(=O)Cc2cc(Nc3ncc(C(F)(F)F)c(NCc4cccc(S(C)(=O)=O)c4)n3)ccc21
2. Cl.Cl.Nc1nc(-c2ccc3c(N)n[nH]c3c2)cc(N2CCCC(NC(=O)c3ccccc3)C2)n1 (centres unmarked)
3. Cl.Cl.NC[C@H](CC1CCCCC1)NC(=O)c1cc(Br)c(-c2ccnc3[nH]ccc23)s1

Output line:
1. 3
2. 26
3. 0

* * *

Kindly state %Inh for each of the entries shown.
# Test system: PAK3
# TEST SETTINGS: concentration: 1 μM,replicates: in singlicate; n = 1
Give bare numbers, in %.

Study these solved cases before continuing.
Nc1nc(Nc2ccccc2)cc(-c2ccc3c(N)n[nH]c3c2)n1 [GSK2225749]
0
CC(C)N1C(=O)Cc2cc(Nc3ncc(C(F)(F)F)c(NCc4cccc(S(C)(=O)=O)c4)n3)ccc21
19
O=C(NCCCN1CCOC1=O)c1cnc(NCc2cc(Cl)ccc2Cl)nc1NC1CCCC1
0
O=C(NCCNc1ccnc(NCc2ccc(F)cc2)n1)c1cc2ccccc2s1 [GSK1379944]
0

Input line: Tell us which %Inh value is on record for Cl.Oc1cc(-c2nc(-c3ccccc3)[nH]c2-c2ccncc2)ccc1Cl [SB-386023]
Output line: 0

* * *

# Test system: RSK2(Kin.Dom.1-N-terminal)
# Construct: gene RPS6KA3
# TEST SETTINGS: concentration: 1 μM,replicates: in singlicate; n = 1
# Y = %Inh below 10% (exclusive); N = %Inh at/above 10%

CCN(CC)CCOc1ccc(Nc2ncc3cc(-c4c(Cl)cccc4Cl)c(=O)n(C)c3n2)cc1
N
C[C@@H](Oc1cc(-c2cnn(C3CCNCC3)c2)cnc1N)c1c(Cl)ccc(F)c1Cl
N
C[C@H]1Oc2cc(cnc2N)-c2c(nn(C)c2C#N)CN(C)C(=O)c2ccc(F)cc21
Y
Cl.Cl.Nc1nc(-c2ccc3c(N)n[nH]c3c2)cc(N2CCCC(NC(=O)c3ccccc3)C2)n1 (stereo not drawn)
Y

Input line: Determine if `Cl.Cl.NC[C@H](CC1CCCCC1)NC(=O)c1cc(Br)c(-c2ccnc3[nH]ccc23)s1` shows %Inh strictly lower than 10%.
Output line: N

Input line: Regarding `Cc1occc1-c1nc(N)c(OC[C@@H](N)Cc2c[nH]c3ccccc23)cc1-c1cc2c(C)n[nH]c2cn1` , kindly confirm whether its %Inh is beneath 10%.
Output line: N

* * *

# Tested on: BLK
# TEST SETTINGS: concentration: 1 μM,replicates: in singlicate; n = 1
Give %Inh for every item shown.
Numbers only, in %.

Cc1cc(C(=O)Nc2ccc(Oc3ccc4nc(NC(=O)C5CC5)cn4n3)cc2)nn1-c1ccccc1
55
CNC(=O)c1ccccc1Sc1ccc2c(/C=C/c3ccccn3)n[nH]c2c1
0
CCN(CC)CCOc1ccc(Nc2ncc3cc(-c4c(Cl)cccc4Cl)c(=O)n(C)c3n2)cc1
99.3
O=C(NCCNc1ccnc(NCc2ccc(F)cc2)n1)c1cc2ccccc2s1
20
O=C(NCCCN1CCOC1=O)c1cnc(NCc2cc(Cl)ccc2Cl)nc1NC1CCCC1
22
COc1ccc(C[C@@H](CN)NC(=O)c2cc(Br)c(-c3ccnc4[nH]ccc34)s2)cc1.Cl.Cl
0
CC(C)Nc1cc(-c2ccc3c(N)n[nH]c3c2)nc(N)n1
3

Input line: Fill in %Inh for record `CN(C)CCOc1ccc(-c2cc(-c3c[nH]nc3-c3ccccn3)ccn2)cc1`
Output line: 14

* * *

# Tested on: WNK2
# TEST SETTINGS: concentration: 1 μM,replicates: in singlicate; n = 1
Please note: 1 (yes) applies when %Inh is 10% or greater, and 0 (no) applies otherwise.

Check out these entries, answers already filled in.
Cc1occc1-c1nc(N)c(OC[C@@H](N)Cc2c[nH]c3ccccc23)cc1-c1cc2c(C)n[nH]c2cn1
0 (no)
CNC(=O)c1ccccc1Sc1ccc2c(/C=C/c3ccccn3)n[nH]c2c1
1 (yes)
CC(C)Nc1cc(-c2ccc3c(N)n[nH]c3c2)nc(N)n1
0 (no)
Cc1ccc(-n2nc(C(C)(C)C)cc2NC(=O)Nc2ccc(OCCN3CCOCC3)c3ccccc23)cc1
0 (no)
Cc1ccc2c(-c3ccncc3)c(-c3ccc(F)cc3)nn2c1.Cl
0 (no)
Cl.Oc1cc(-c2nc(-c3ccccc3)[nH]c2-c2ccncc2)ccc1Cl
0 (no)
CCn1c(-c2nonc2N)nc2c(C#CC(C)(C)O)nc(OCCN)cc21.Cl.Cl
1 (yes)
C[C@@H](Oc1cc(-c2cnn(C3CCNCC3)c2)cnc1N)c1c(Cl)ccc(F)c1Cl
1 (yes)

Input line: Can `CC(C)N1C(=O)Cc2cc(Nc3ncc(C(F)(F)F)c(NCc4cccc(S(C)(=O)=O)c4)n3)ccc21` be said to have %Inh at or above 10%?
Output line: 0 (no)

Input line: Check if %Inh >= 10% (inclusive). Item: `Cc1n[nH]c2ccc(-c3cc(OC[C@@H](N)Cc4ccccc4)cnc3-c3ccoc3)cc12.O=C(O)C(F)(F)F.O=C(O)C(F)(F)F`
Output line: 1 (yes)

Input line: State whether the measured %Inh reaches 10%, counting equality as reaching it, for `O=C(NCCCN1CCOC1=O)c1cnc(NCc2cc(Cl)ccc2Cl)nc1NC1CCCC1`
Output line: 0 (no)

Input line: Tell me whether %Inh is at least 10% here: `Cc1cc(C(=O)Nc2ccc(Oc3ccc4nc(NC(=O)C5CC5)cn4n3)cc2)nn1-c1ccccc1`
Output line: 0 (no)

Input line: Reported %Inh reaches at least 10% for `COc1ccc(C[C@@H](CN)NC(=O)c2cc(Br)c(-c3ccnc4[nH]ccc34)s2)cc1.Cl.Cl` ?
Output line: 1 (yes)

Input line: # bool: %Inh of CN(C)CC(O)COc1ccc(Nc2nccc(-c3cnn4nc(N5CCOCC5)ccc34)n2)cc1 (stereo not shown) >= 10%
Output line: 0 (no)

Input line: Given the entry `C[C@H]1Oc2cc(cnc2N)-c2c(nn(C)c2C#N)CN(C)C(=O)c2ccc(F)cc21` , answer whether its %Inh meets or surpasses 10%.
Output line: 0 (no)

* * *

# Tested on: MTOR
# TEST SETTINGS: concentration: 1 μM,replicates: in singlicate; n = 1
Would you mind telling me the reported %Inh of each entry?
Give bare numbers, in %.

Cl.Cl.NC[C@H](Cc1ccc(C(F)(F)F)cc1)NC(=O)c1cc(Br)c(-c2ccnc3[nH]ccc23)s1
11
CNC(=O)c1ccccc1Sc1ccc2c(/C=C/c3ccccn3)n[nH]c2c1
52
C[C@@H](Oc1cc(-c2cnn(C3CCNCC3)c2)cnc1N)c1c(Cl)ccc(F)c1Cl
2

Would you mind giving %Inh for every compound in the list below?
1. CC(C)Nc1cc(-c2ccc3c(N)n[nH]c3c2)nc(N)n1
2. Cc1occc1-c1nc(N)c(OC[C@@H](N)Cc2c[nH]c3ccccc23)cc1-c1cc2c(C)n[nH]c2cn1

Output line:
1. 9
2. 15

I need %Inh for every entry listed below, if you could help.
1. C[C@H]1Oc2cc(cnc2N)-c2c(nn(C)c2C#N)CN(C)C(=O)c2ccc(F)cc21
2. COc1ccc(C[C@@H](CN)NC(=O)c2cc(Br)c(-c3ccnc4[nH]ccc34)s2)cc1.Cl.Cl

Output line:
1: 0; 2: 17

Input line: Give %Inh only, for `Cc1ccc2c(-c3ccncc3)c(-c3ccc(F)cc3)nn2c1.Cl` , using MTOR data.
Output line: 9
